These measurements were taken from ChEMBL document CHEMBL3400018.

# IC50 per entry
Test system: Staphylococcus aureus
Test: Antimicrobial activity against Staphylococcus aureus MLS-16 MTCC 2940 assessed as inhibition of biofilm formation after 24 hrs
Assay type: functional, organism-based
Conditions: MLS-16, 24 h
# number only, unit µg/mL dropped from output

[[record]]
compound = "O=c1cc(CO)oc(C2C=C(c3cccs3)Oc3ccccc32)c1O (stereo not drawn)"
assay_result = 8.8

[[record]]
compound = "CC[C@H]1OC(=O)[C@H](C)[C@@H](O[C@H]2C[C@@](C)(OC)[C@@H](O)[C@H](C)O2)[C@H](C)[C@@H](O[C@@H]2O[C@H](C)C[C@H](N(C)C)[C@H]2O)[C@](C)(O)C[C@@H](C)C(=O)[C@H](C)[C@@H](O)[C@]1(C)O"
assay_result = 0.23

[[record]]
compound = "O=c1cc(CO)oc(C2C=C(c3ccc(Cl)cc3)Oc3ccccc32)c1O (stereo not drawn)"
assay_result = 9.1


Item: CC(C)CC1=CC(c2oc(CO)cc(=O)c2O)c2ccccc2O1 (stereo not drawn) Test system: Staphylococcus aureus Read-out: IC50 Value: ?
9.2

Entry COc1ccc(C2=CC(c3oc(CO)cc(=O)c3O)c3ccccc3O2)cc1 (stereo not drawn) , system Staphylococcus aureus: what IC50 was measured?
15.4

What is its IC50 for Staphylococcus aureus? Entry: O=c1cc(CO)oc(C2C=C(c3ccccc3)Oc3ccccc32)c1O (stereo not drawn)
8.3

Lookup: IC50 / Staphylococcus aureus / Cc1ccc(C2=CC(c3oc(CO)cc(=O)c3O)c3ccccc3O2)cc1 (stereo not drawn)
18.6
